system: CAL-72 (Osteosarcoma); assay: combination Emax (second highest fraction inhibited in the dose matrix, 72 h); higher = more inhibition; extreme values may be limits of the assay

compound: Cc1cc2ncnn2cc1Nc1ncc2c(n1)n(C1CCOCC1)c(=O)n2C [AZD7648] + C=CCn1c(=O)c2cnc(Nc3ccc(N4CCN(C)CC4)cc3)nc2n1-c1cccc(C(C)(C)O)n1 [AZD1775] (first compound max 10 µM, partner max 1 µM)
combination Emax: 0.649
//
compound: Cc1c2c(nn1C)CSCc1cc(n(C)n1)CSc1cc(c3ccccc3c1)OCCCc1c(C(=O)O)n(C)c3c-2c(Cl)ccc13 [AZD5991] + Cn1cnc2c(F)c(Nc3ccc(Br)cc3Cl)c(C(=O)NOCCO)cc21 [Selumetinib] (first compound max 1 µM, 7x7, partner max 3 µM)
combination Emax: 0.406
//
compound: N#Cc1cnc(Nc2cc(NC[C@H]3CNCCO3)c(C(F)(F)F)cn2)cn1 [SRA737] + CCc1c2c(nc3ccc(O)cc13)-c1cc3c(c(=O)n1C2)COC(=O)[C@]3(O)CC [SN-38] (first compound max 10 µM, 7x7, partner max 0.3 µM)
combination Emax: 0.91
